For each of the compounds below, state its pKi.
Please note pKi is a logarithmic value: minus log10 of concentration in mol/L. Answer with that number alone.

Report pKi under test system Norepinephrine transporter (Rattus norvegicus, UniProt Q9WTR4) for C=C(c1ccccc1)c1ccc([C@H]2CC3CC[C@H](C2C(=O)OC)N3C)cc1 (some centres undefined) .
5.37

Report pKi under test system Norepinephrine transporter (Rattus norvegicus, UniProt Q9WTR4) for COC(=O)C1[C@@H](c2ccc(CCCc3ccccc3)cc2)CC2CC[C@H]1N2C (some centres undefined) .
5.07

Report pKi under test system Norepinephrine transporter (Rattus norvegicus, UniProt Q9WTR4) for COC(=O)C1[C@@H](c2ccc(/C=C/c3ccccc3)cc2)CC2CC[C@H]1N2C (some centres undefined) .
5.93

Report pKi under test system Norepinephrine transporter (Rattus norvegicus, UniProt Q9WTR4) for COC(=O)C1[C@@H](c2ccc(-c3ccccc3)cc2)CC2CC[C@H]1N2C (some centres undefined) .
6.05

Report pKi under test system Norepinephrine transporter (Rattus norvegicus, UniProt Q9WTR4) for C#Cc1ccc([C@H]2CC3CC[C@H](C2C(=O)OC)N3C)cc1 (some centres undefined) .
7.30

Report pKi under test system Norepinephrine transporter (Rattus norvegicus, UniProt Q9WTR4) for COC(=O)C1[C@@H](c2ccc(C#CCCCc3ccccc3)cc2)CC2CC[C@H]1N2C (some centres undefined) .
5.57

Report pKi under test system Norepinephrine transporter (Rattus norvegicus, UniProt Q9WTR4) for COC(=O)C1[C@@H](c2ccc(Cc3ccccc3)cc2)CC2CC[C@H]1N2C (some centres undefined) .
6.22

Report pKi under test system Norepinephrine transporter (Rattus norvegicus, UniProt Q9WTR4) for CCc1ccc([C@H]2C[C@H]3CCC(C2C(=O)OC)N3C)cc1 (some centres undefined) .
5.63

Report pKi under test system Norepinephrine transporter (Rattus norvegicus, UniProt Q9WTR4) for C/C=C\c1ccc([C@H]2CC3CC[C@H](C2C(=O)OC)N3C)cc1 (some centres undefined) .
6.02

Report pKi under test system Norepinephrine transporter (Rattus norvegicus, UniProt Q9WTR4) for COC(=O)C1[C@@H](c2ccc(C#CCCc3ccccc3)cc2)CC2CC[C@H]1N2C (some centres undefined) .
6.05

Report pKi under test system Norepinephrine transporter (Rattus norvegicus, UniProt Q9WTR4) for COC(=O)C1[C@@H](c2ccc(C#CCCCCO)cc2)CC2CC[C@H]1N2C (some centres undefined) .
5.24

Report pKi under test system Norepinephrine transporter (Rattus norvegicus, UniProt Q9WTR4) for COC(=O)C1C(c2ccc3ccccc3c2)CC2CC[C@H]1N2C (some centres undefined) .
7.37

Report pKi under test system Norepinephrine transporter (Rattus norvegicus, UniProt Q9WTR4) for COC(=O)[C@@H]1C2CC[C@H](C[C@@H]1c1ccccc1)N2C .
7.26

Report pKi under test system Norepinephrine transporter (Rattus norvegicus, UniProt Q9WTR4) for CCCc1ccc([C@H]2CC3CC[C@H](C2C(=O)OC)N3C)cc1 (some centres undefined) .
5.63

====

Biological target: Sodium-dependent serotonin transporter (Rattus norvegicus, UniProt P31652)
Sequence (P31652 whole entry): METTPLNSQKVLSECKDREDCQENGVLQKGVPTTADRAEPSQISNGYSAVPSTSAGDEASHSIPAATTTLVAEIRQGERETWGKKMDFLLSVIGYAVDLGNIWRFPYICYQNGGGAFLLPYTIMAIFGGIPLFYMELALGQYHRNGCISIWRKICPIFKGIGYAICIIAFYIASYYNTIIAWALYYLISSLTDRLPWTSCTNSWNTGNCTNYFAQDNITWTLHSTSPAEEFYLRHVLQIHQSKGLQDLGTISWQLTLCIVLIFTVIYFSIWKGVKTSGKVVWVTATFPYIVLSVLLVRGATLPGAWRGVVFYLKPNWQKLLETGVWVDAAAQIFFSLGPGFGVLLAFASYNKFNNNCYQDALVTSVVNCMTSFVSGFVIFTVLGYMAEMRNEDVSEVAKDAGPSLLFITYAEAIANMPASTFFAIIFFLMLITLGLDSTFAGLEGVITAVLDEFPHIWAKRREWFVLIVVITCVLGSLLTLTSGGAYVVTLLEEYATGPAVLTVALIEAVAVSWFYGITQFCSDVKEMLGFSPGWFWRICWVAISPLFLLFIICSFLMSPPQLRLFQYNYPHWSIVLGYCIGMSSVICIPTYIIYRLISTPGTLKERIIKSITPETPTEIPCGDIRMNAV
Test: Tested for the binding affinity towards Serotonin transporter in rat midbrain tissue by displacing [3H]paroxetine radioligand
Format: tissue-based
Measurement Type: Ki (nM)
Value expressed in nM; do not type the unit.

Give the reported Ki for this molecule. C/C=C\c1ccc([C@H]2CC3CC[C@H](C2C(=O)OC)N3C)cc1 (some centres not stated)
1.04

Give the reported Ki for this molecule. CCc1ccc([C@H]2C[C@H]3CCC(C2C(=O)OC)N3C)cc1 (some centres not stated)
2.58

Give the reported Ki for this molecule. C=Cc1ccc([C@H]2CC3CC[C@H](C2C(=O)OC)N3C)cc1 (some centres not stated)
0.86

Give the reported Ki for this molecule. C=C(c1ccccc1)c1ccc([C@H]2CC3CC[C@H](C2C(=O)OC)N3C)cc1 (some centres not stated)
246

Give the reported Ki for this molecule. COC(=O)C1[C@@H](c2ccc(Cc3ccccc3)cc2)CC2CC[C@H]1N2C (some centres not stated)
658

Give the reported Ki for this molecule. COC(=O)C1[C@@H](c2ccc(/C=C/Cc3ccccc3)cc2)CC2CC[C@H]1N2C (some centres not stated)
71

Give the reported Ki for this molecule. CCCc1ccc([C@H]2CC3CC[C@H](C2C(=O)OC)N3C)cc1 (some centres not stated)
6.4

Give the reported Ki for this molecule. COC(=O)C1=C(c2ccc3ccccc3c2)CC2CCC1N2C (configuration not stated)
31.4

Give the reported Ki for this molecule. COC(=O)C1[C@@H](c2ccc(CCCCc3ccccc3)cc2)CC2CC[C@H]1N2C (some centres not stated)
439

Give the reported Ki for this molecule. COC(=O)C1C(c2ccc3ccccc3c2)CC2CC[C@H]1N2C (some centres not stated)
1.05

Give the reported Ki for this molecule. COC(=O)C1[C@@H](c2ccc(C#CCCCCO)cc2)CC2CC[C@H]1N2C (some centres not stated)
75

Give the reported Ki for this molecule. COC(=O)C1[C@@H](c2ccc(CCCc3ccccc3)cc2)CC2CC[C@H]1N2C (some centres not stated)
113
